Could you please report measured growth for the items listed next?
# System: OVCAR-5 ovarian
# MEASUREMENT PROTOCOL: NCI-60 one-dose screen, 48 h (100 = growth as untreated, 0 = no growth, -100 = all killed)
# STUDY CONDITIONS: 10 µM unless noted
This is part of a sample that, as a whole, favours compounds with a hit. Of some 83,000 tested, about 20% had one in any assay.
Hi! Could you send only the number? It should be in %, unit omitted.

I'm curious: which growth was measured for CCOC(=O)c1ccccc1SC(C[N+](=O)[O-])c1ccccc1 (centres undefined) tested on OVCAR-5 ovarian?
100

What would you report for CC1=NOCC(=O)N1 ?
95.3

Try this molecule too: COc1ccc(/C(=C\c2cc(OC)c(OC)c(OC)c2)C(=O)Nc2nc3ccc(Cl)cc3s2)cc1
97.2

Would you mind doing O=C(N=Nc1c(Cl)c(O)c2ccccc2c1O)C(=O)Nc1cccc(C(F)(F)F)c1 as well?
118

Now the molecule Brc1cccc(-n2ncc3c(Nc4ccc(-c5nnc(-c6ccccc6)o5)cc4)ncnc32)c1
104

Again, but for N#Cc1ccc(NC(=O)Nc2nc3ccc(OC(F)(F)F)cc3s2)cc1
16

And what about the molecule CC(C)N1CCN(c2ccncc2S(=O)(=O)N2CCN(C)CC2)CC1 ?
96.9

Moving on to the next molecule: OC(c1cc2cc(Cl)ccc2c2cc(C(F)(F)F)ccc12)C1CCCCN1 (centres undefined)
-77.8

How about this molecule: Oc1c(C(c2ccc(F)cc2)N2CCCCC2)ccc2cncnc12 (centres undefined)
22.3

Now this one: COc1ccc(-c2cn(-c3cccc(C(=O)/C=C/c4ccc(O)c(OC)c4)c3)c(=O)[nH]2)cc1
33

And the next one, O=C(NCC(c1ccsc1)N1CCCCCC1)c1ccc(C(F)(F)F)cc1 (centres undefined) ?
106

Now consider C=CC[C@]1(O)CC[C@H]2[C@@H]3CCc4cc(O)ccc4[C@H]3CC[C@@]21C and answer again.
98.5

Moving on to the next molecule: C=CCn1c(C)nc2cc(Nc3nc(Nc4ccc5nc(C)n(CC=C)c5c4)nc4ccccc34)ccc21
107

Now consider Cc1nc([C@H]2CC[C@H]3[C@@H]4CCC5=CC(=O)CC[C@]5(C)[C@H]4CC[C@]23C)cs1 and answer again.
91.4

Quick one: COc1cc(C)cc2oc3oc(=O)c(-c4csc(-c5cc6ccccc6oc5=O)n4)cc3c(=O)c12
109

O=S(=O)(NCC[C@@H]1C[C@H]1c1ccc2ccccc2c1)c1ccc(C(F)(F)F)cc1 ?
99.3

Now give it for FC(F)(F)c1ccc(/C=N/Nc2nnc3n2N=C(c2ccc(Cl)cc2)CS3)cc1 too.
92.7

Also check CC(=O)O[C@H]1[C@H](CC#CC#CC[C@@H]2C[C@]3(C)[C@H]4CC=C5[C@H]6[C@@H](C)[C@H](C)CC[C@]6(C(=O)NCCCCCCCCN)CC[C@@]5(C)[C@]4(C)CC[C@H]3C(C)(C)[C@H]2OC(C)=O)C[C@]2(C)[C@H]3CC=C4[C@H]5[C@@H](C)[C@H](C)CC[C@]5(C(=O)NCCCCCCCCN)CC[C@@]4(C)[C@]3(C)CC[C@H]2C1(C)C
108

Do the same for CC(C)(C)NC(=O)C(OC(=O)C1CCc2cc(F)ccc2O1)c1ccccc1Cl (centres undefined) please
96.6
